Read-out: Fatty Acid-Binding Protein 1 (FABP1), FABP1 (gene 2168)
procedure_text: LTEA_HepaRG_FABP1: Life Technologies and Expression Analysis (LTEA) Assay for Fatty Acid-Binding Protein 1 (FABP1) using HepaRG (AID 2283494)
reported_conditions: mRNA level, 48 h; actives raise or lower the signal
Active and inactive are the calls of the source. Rule for the calls: active = hit-call score of the fitted dose curve at least 0.9, where 1 is the maximum; inactive = score below 0.9.
Outcomes: active, inactive

- molecule: "CCCCOCCO"
  label_class: "inactive"
- molecule: "Cc1cc(C)c(O)c(C)c1"
  label_class: "inactive"
- molecule: "CN1CCC[C@H]1c1cccnc1"
  label_class: "inactive"
- molecule: "COc1ccc([N+](=O)[O-])cc1N"
  label_class: "inactive"
- molecule: "CCC(C)(C)C1CCC(O)CC1 (configuration not stated)"
  label_class: "inactive"
- molecule: "CCOC(=O)CC(O)(CC(=O)OCC)C(=O)OCC"
  label_class: "inactive"
- molecule: "CCN(CC)CCNc1ccc(CNC=O)c2sc3ccc(OC)cc3c(=O)c12"
  label_class: "active"
- molecule: "CCCOC(=O)c1ccc(O)cc1"
  label_class: "inactive"
- molecule: "CC(C)CCCCCCOC(=O)CCCCC(=O)OCCCCCCC(C)C"
  label_class: "inactive"
- molecule: "Cc1cc(CCN2CCN(c3nsc4ccccc34)CC2)cc2c1NC(=O)CC2(C)C"
  label_class: "active"
- molecule: "O=C(O)Cc1cc(I)c(Oc2cc(I)c(O)c(I)c2)c(I)c1"
  label_class: "active"
- molecule: "CCCCCCCCC(=O)O"
  label_class: "inactive"
- molecule: "CC(C)(C)c1cccc(C(C)(C)C)c1O"
  label_class: "inactive"
- molecule: "C=C(C)C(=O)OCCC(F)(F)C(F)(F)C(F)(F)C(F)(F)C(F)(F)C(F)(F)F"
  label_class: "inactive"
- molecule: "COC(=O)CCCCC(=O)OC"
  label_class: "inactive"
- molecule: "Cc1oc(-c2ccccc2)nc1CCOc1ccc(C[C@H](Nc2ccccc2C(=O)c2ccccc2)C(=O)O)cc1"
  label_class: "active"
- molecule: "c1ccc2cc3c(ccc4ccccc43)cc2c1"
  label_class: "active"
- molecule: "CN(C)C=O"
  label_class: "inactive"
- molecule: "CCCCC(CC)COC(=O)CCCCC(=O)OCc1ccccc1 (configuration not stated)"
  label_class: "inactive"
- molecule: "CC(C)(C)c1ccc(O)c(C(C)(C)C)c1"
  label_class: "inactive"
- molecule: "CN1CCN(c2ccccc2/C=C2\\SCCN(c3ccc(Cl)c(Cl)c3)C2=O)CC1"
  label_class: "active"
- molecule: "O=c1c(-c2ccc(O)cc2)coc2cc(O)ccc12"
  label_class: "inactive"
- molecule: "CCCOc1sc(C(=O)N2CCC(c3cc(CN)ccc3F)CC2)c(C)c1Br"
  label_class: "inactive"
- molecule: "CC1=C(/C=C/C(C)=C/C=C/C(C)=C/C(=O)O)C(C)(C)CCC1"
  label_class: "active"
- molecule: "CC(=O)CC(C)(C)O"
  label_class: "inactive"
- molecule: "CCC(=C(c1ccc(O)cc1)c1ccc(OCCN(C)C)cc1)c1ccccc1"
  label_class: "inactive"
- molecule: "Nc1cccc2c(N)cccc12"
  label_class: "active"
